# target or system: CXCR4 receptors (Homo sapiens)
# Construct: expressing endogenous CXCR4 receptors; endogenous in cells
# assay method text: CXCR4-CEM calcium flux assay, antagonist mode (inhibition of SDF-1α-induced calcium flux)
# measurement conditions: inhibition of calcium flux induced by 4 nM SDF-1α in CCRF-CEM cells
quantity: log10(IC50) (log10 of the value in nM)

{"columns": ["compound", "readout value"],
 "data": [
  ["CN(Cc1cn2c(N3CCN(CCC(F)(F)F)CC3)nccc2n1)[C@H]1CCCc2cccnc21 [Example 36]", 4.49],
  ["CCN1CCN(c2nccc3nc(CN(C)[C@H]4CCCc5cccnc54)cn23)CC1 [Example 35]", 2.71],
  ["CN(Cc1cn2c(N3CC4CNCC4C3)nccc2n1)[C@H]1CCCc2cccnc21 (stereo partly shown) [Example 80]", 1.36],
  ["CN(Cc1nc2ccnc(N3CCN4CCC[C@H]4C3)n2c1CO)[C@H]1CCCc2cccnc21 [Example 108]", 0.32],
  ["CN(Cc1cn2c(N3CCNC[C@H]3CO)nccc2n1)[C@H]1CCCc2cccnc21 [Example 77]", 2.40],
  ["CN(Cc1cn2c(N3CCN4CCCCC4C3)nccc2n1)[C@H]1CCCc2cccnc21 (stereo partly shown) [Example 90]", 0.40],
  ["[2H]C([2H])([2H])N1CCN(c2nccc3nc(CN(C)[C@H]4CCCc5cccnc54)cn23)CC1 [Example 17]", 0.57],
  ["CN1CCC(N2CCN(c3nccc4nc(CN(C)[C@H]5CCCc6cccnc65)cn34)CC2)CC1 [Example 38]", 2.62],
  ["CN(Cc1cn2c(N3CCN(C(=O)Nc4cccnc4)CC3)nccc2n1)[C@H]1CCCc2cccnc21 [Example 45]", 1.82],
  ["CN(Cc1cn2c(N3CCN(Cc4nccn4C)CC3)nccc2n1)[C@H]1CCCc2cccnc21 [Example 51]", 0.78],
  ["C[C@@H]1CN(c2nccc3nc(CN(C)[C@H]4CCCc5cccnc54)cn23)C[C@H](C)N1C [Example 97]", 2.68],
  ["CN1CCC2CN(c3nccc4nc(CN(C)[C@H]5CCCc6cccnc65)cn34)CC21 (stereo partly shown) [Example 100]", 2.32],
  ["CN(Cc1cn2c(N3CCN(Cc4cccc(O)c4)CC3)nccc2n1)[C@H]1CCCc2cccnc21 [Example 69]", 0.58],
  ["CC(CCN1CCN(c2nccc3nc(CN(C)[C@H]4CCCc5cccnc54)cn23)CC1)c1ccccc1 (stereo partly shown) [Example 65]", 1.20],
  ["CN(Cc1cn2c(N3CCN(CCN)CC3)nccc2n1)[C@H]1CCCc2cccnc21 [Example 16]", 2.73]
]}

====

# target or system: CXCR4 receptors (Homo sapiens, UniProt P61073)
# Construct: expressing endogenous CXCR4 receptors; endogenous in cells
# Sequence (P61073 whole entry): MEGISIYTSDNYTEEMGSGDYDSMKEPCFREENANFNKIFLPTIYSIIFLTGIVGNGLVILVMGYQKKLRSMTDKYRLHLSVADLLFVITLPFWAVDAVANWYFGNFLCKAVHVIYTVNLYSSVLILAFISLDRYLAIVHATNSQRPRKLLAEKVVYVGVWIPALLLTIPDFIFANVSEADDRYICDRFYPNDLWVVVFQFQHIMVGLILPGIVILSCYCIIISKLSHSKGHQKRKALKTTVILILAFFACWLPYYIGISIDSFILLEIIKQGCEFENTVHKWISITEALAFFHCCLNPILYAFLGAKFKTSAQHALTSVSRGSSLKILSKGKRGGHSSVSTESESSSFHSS
# assay method text: CXCR4-CEM calcium flux assay, antagonist mode (inhibition of SDF-1α-induced calcium flux)
# measurement conditions: inhibition of calcium flux induced by 4 nM SDF-1α in CCRF-CEM cells
pIC50: −log10 of the molar value.
Respond with Satisfied for pIC50 values of 8 and above, Not satisfied for values below.

{"columns": ["query smiles", "class label"],
 "data": [
  ["CC(C)NC(=O)N1CCN(c2nccc3nc(CN(C)[C@H]4CCCc5cccnc54)cn23)CC1", "Not satisfied"],
  ["CN(Cc1cn2c(N3CCN(Cc4ncc[nH]4)CC3)nccc2n1)[C@H]1CCCc2cccnc21", "Satisfied"],
  ["CN(Cc1cn2c(N3CCOCC3)nccc2n1)[C@H]1CCCc2cccnc21", "Not satisfied"],
  ["CN(Cc1cn2c(N3CCN(CCF)CC3)nccc2n1)[C@H]1CCCc2cccnc21", "Not satisfied"],
  ["CC(C)S(=O)(=O)N1CCN(c2nccc3nc(CN(C)[C@H]4CCCc5cccnc54)cn23)CC1", "Not satisfied"],
  ["CN(Cc1cn2c(N3CCN(Cc4ccco4)CC3)nccc2n1)[C@H]1CCCc2cccnc21", "Satisfied"]
]}
